Provenance of the data: patent US6420438B1

biological target: UniProt:P00742
Sequence (P00742 235-488 limits assumed): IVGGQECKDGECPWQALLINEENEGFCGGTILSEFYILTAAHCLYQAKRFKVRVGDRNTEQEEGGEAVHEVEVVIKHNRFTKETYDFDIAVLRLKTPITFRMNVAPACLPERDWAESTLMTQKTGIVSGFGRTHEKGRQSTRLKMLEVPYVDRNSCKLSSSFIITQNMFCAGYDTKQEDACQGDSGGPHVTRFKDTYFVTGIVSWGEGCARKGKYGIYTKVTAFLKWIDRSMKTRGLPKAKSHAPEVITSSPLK
Sequence (P00742 41-179 partner limits assumed): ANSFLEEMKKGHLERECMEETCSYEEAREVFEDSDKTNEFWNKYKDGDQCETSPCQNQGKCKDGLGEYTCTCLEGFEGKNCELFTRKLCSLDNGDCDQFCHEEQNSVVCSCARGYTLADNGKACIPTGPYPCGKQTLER
measuredProperty: pKi
// returns pKi (minus log10 of molar concentration), number only

Input line: Any idea what pKi was measured for N=C(N)c1ccccc1 [benzamidine] ?
Output line: 3.81
